Data provenance is PubChem BioAssay (NCI).

# Tested on: MDA-MB-435 melanoma
# ASSAY_COMMENT: NCI-60 one-dose screen, 48 h (100 = growth as untreated, 0 = no growth, -100 = all killed)
# TEST_PARAMETERS: 10 µM unless noted
# Description: Growth inhibition of the MDA-MB-435 human Melanoma tumor cell line is measured as a screen for anti-cancer activity. Cells are grown in 96 well plates and exposed to the test compound for 48 hours. Compounds are tested at a single concentration, which is 10^-5 M for most compounds. The reported endpoint is percent growth (GI% or GIPRCNT), where numbers from 0 - 100% represent growth inhibition, and numbers from -100% - 0 represent cell death. […]
About 83,000 compounds went through this panel and 20% of them were active in at least one assay; those are over-represented in the sample as a whole.
Form field: growth (one value per entry).
Give the value, in units of %, as a plain number.

COMPOUND | QUANTITY_MEASURED | DATA_VALUE
CCCCOc1nc2ccc(C)cc2cc1/C=C/C(=O)/C=C/c1ccc2c(c1)OCO2 | growth | 35.8

Alright, here's another compound for you.
Look up growth of `C=C1C(=O)O[C@H]2[C@H]1CC/C(COC(=O)CCCCCCCC(=O)OC/C1=C/CC[C@@]3(C)O[C@H]3[C@H]3OC(=O)C(=C)[C@@H]3CC1)=C\CC[C@@]1(C)O[C@@H]21` and report it.
29.9
